Tested on: MET(Y1235D);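 also: KINOMEscan scanMAX binding as percent activity remaining versus control; lower means stronger binding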
measurementContext: Compound Concentration (nM):1000
Please provide measured Percent Control for the entries that follow.

Worked cases, Percent Control given:
compound: O=C1Nc2ccc(C(=O)c3ccco3)cc2C1=Cc1cc(Cl)c(O)c(Cl)c1 [GW406108X]
valueKind: Percent Control
dataValue: 100%
--
compound: COc1cccc(-c2c[nH]c3c(N/N=C/c4ccncc4)ncnc23)c1 [GW814408X]
valueKind: Percent Control
dataValue: 75%
--
compound: O=C(Nc1n[nH]c2nc(-c3ccc(O)cc3)c(Br)cc12)C1CC1
valueKind: Percent Control
dataValue: 100%
--
compound: COc1cc2ncn(-c3cc(O[C@H](C)c4ccccc4Cl)c(C(N)=O)s3)c2cc1OC [GSK237701A]
valueKind: Percent Control
dataValue: 71%

For each of the compounds below, note its Percent Control.
1. COc1ccc2cc(-c3c(-c4ccncc4)nc(-c4ccc(S(C)(=O)=O)cc4C)n3C)ccc2c1
2. COc1ccc(COc2ccc(Cc3cnc(N)nc3N)cc2OC)cc1 [GW632580X]

Result string:
1: 100%; 2: 100%

For each of the compounds below, note its Percent Control.
1. C/C(Nc1ccc(S(N)(=O)=O)cc1)=C1/C(=O)Nc2ccccc21 [GW335962X]
2. COc1cc(N2CCN(C(C)C)CC2)ccc1Nc1nc(Nc2ccc(F)cc2C(=O)NC[C@@H](O)CO)c2cc[nH]c2n1 [GSK1392956A]
3. Cl.O=S1CCN(Cc2ccc(-c3ccc4ncnc(Nc5ccc(OCc6ccccc6)c(F)c5)c4c3)o2)CC1 [GW576924A]

Result string:
1: 100%; 2: 100%; 3: 100%

For each of the compounds below, note its Percent Control.
1. C[C@@H](Oc1cc(-n2cnc3ccc(OC4CCN(C)CC4)cc32)sc1C(N)=O)c1ccccc1Cl [GSK579289A]
2. CN(C)CCNC(=O)Nc1ccc(N(C)c2ccnc(Nc3ccc(CS(C)(=O)=O)cc3)n2)cc1.Cl [GW830900A]
3. COc1cc2ncnc(Nc3ccc4c(cnn4Cc4ccccc4)c3)c2cc1OC.Cl [GW282449A]
4. COc1cc(C)c(N(C)C(=O)CN(C)C)cc1Nc1nc(Nc2cccc(F)c2C(N)=O)c2cc[nH]c2n1
5. CC1=C(C(=O)Nc2ccc3[nH]ncc3c2)C(c2ccc(Cl)c(Cl)c2)CC(=O)N1 (stereo not shown) [GSK299115A]

Result string:
98%
57%
100%
99%
97%

For each of the compounds below, note its Percent Control.
1. COc1ccc2c(-c3ccnc(Nc4cccc(OC(F)(F)F)c4)n3)cnn2n1 [GW810372X]
2. Cl.c1ccc(Cc2nc3ccc(Nc4ncnc5ccccc45)cc3[nH]2)cc1 [GR269666A]

Result string:
["100%", "91%"]
